tested on: ENR+CD organoids; experiment: Primary screen: ATP (CellTiter-Glo 3D, CTG) cell number/viability, 2.5-D 384-well ENR+CD organoids; conditions: primary screen, dose 0.40 uM
Please use the following Z.CTG (standard z score) ranges when assigning a class: Low: < -0.1; Mid: ≥ -0.1 and < 0.2; High: ≥ 0.2

[in] Band of Nc1cccc(-c2cc3c(Oc4cccc(O)c4)ncnc3[nH]2)c1 ?
[out] High

[in] Band of CCN1CCN(c2ccc(Nc3cc(N(C)C(=O)Nc4c(Cl)c(OC)cc(OC)c4Cl)ncn3)cc2)CC1 ?
[out] Mid

[in] Band of N#C[C@@H]1CCCN1C(=O)CNC12CC3CC(CC(O)(C3)C1)C2 ?
[out] High

[in] Band of O=C(c1ccc(F)cc1)N1CCC[C@H](c2nc(-c3ccc(F)cc3)no2)C1 ?
[out] Mid

[in] Band of Cn1cc(/C=C2\C(=O)Nc3cccnc32)c2ccccc21 ?
[out] Low

[in] Band of Cc1cc(Nc2cc(CN3CCOCC3)c3nc(C)c(Cc4ccc(Cl)cc4F)n3n2)n[nH]1 ?
[out] Mid

[in] Band of Nc1nc(N)c2nc(-c3cccc(O)c3)c(-c3cccc(O)c3)nc2n1 ?
[out] Mid

[in] Band of O=C(O)c1cccc(-c2noc(-c3ccccc3F)n2)c1 ?
[out] Low

[in] Band of CNC(=O)[C@H](Cc1ccccc1)NC(=O)[C@H](CC(C)C)[C@H](CSc1cccs1)C(=O)NO ?
[out] Low

[in] Band of C[C@H](NC(=O)[C@@H](O)c1cc(F)cc(F)c1)C(=O)N[C@@H]1C(=O)N(C)c2ccccc2-c2ccccc21 ?
[out] Low

[in] Band of Cl.N[C@@H]1C[C@H]1c1ccccc1 (racemic) [Tranylcypromine (2-PCPA) HCl] ?
[out] Mid

[in] Band of COCC[n+]1c2c(n(Cc3cnccn3)c1C)C(=O)c1ccccc1C2=O.[Br-] [YM155 (Sepantronium Bromide)] ?
[out] Low

[in] Band of CCn1c(-c2nonc2N)nc2c(C#CC(C)(C)O)ncc(OC[C@H]3CCCNC3)c21 ?
[out] High

[in] Band of NC(=O)c1cccc(-c2cc(Nc3ccc(OC(F)(F)F)cc3)ncn2)c1 ?
[out] High

[in] Band of CC(C)CCN1c2nc(Nc3cc(F)c(O)c(F)c3)ncc2N(C)C(=O)C1C (centres unmarked) ?
[out] Mid

[in] Band of Cc1cccc(CC(=O)N2CCc3c2ccc(-c2cn(C)c4ncnc(N)c24)c3F)n1 ?
[out] High

[in] Band of Cc1ccc(NC(=O)C2(c3ccc4c(c3)OC(F)(F)O4)CC2)nc1-c1cccc(C(=O)O)c1 ?
[out] Low

###

tested on: ENR+CD organoids; experiment: Primary screen: ATP (CellTiter-Glo 3D, CTG) cell number/viability, 2.5-D 384-well ENR+CD organoids; settings: primary screen, dose 2.00 uM
recorded-endpoint: Dose.FC.CTG (log2 fold change)
Answer format: numeric, log2 fold change implied, no suffix.

Kindly note the recorded Dose.FC.CTG for CC(/C=C/C(=O)NO)=C\[C@@H](C)C(=O)c1ccc(N(C)C)cc1 [Trichostatin A (TSA)] , which is −0.904

Kindly note the recorded Dose.FC.CTG for CCCCCCCCCCCC1=C(O)C(=O)C=C(O)C1=O [Embelin] , which is −0.325

Kindly note the recorded Dose.FC.CTG for CC(C)(C#N)c1cc(Cn2cncn2)cc(C(C)(C)C#N)c1 [Anastrozole] , which is −0.058

Kindly note the recorded Dose.FC.CTG for Cc1c(Cl)cccc1Nc1ccccc1C(=O)O [Tolfenamic Acid] , which is −0.159

Kindly note the recorded Dose.FC.CTG for O=C1C(=O)N(Cc2ccc(Cl)c(Cl)c2)c2ccccc21 [Apoptosis Activator 2] , which is 0.082

Kindly note the recorded Dose.FC.CTG for COc1ccccc1OCCNCC(O)COc1cccc2[nH]c3ccccc3c12 (stereo not drawn) [Carvedilol] , which is −0.151

Kindly note the recorded Dose.FC.CTG for O=C(O)c1cc2cccc([N+](=O)[O-])c2[nH]1 [CRT0044876] , which is −0.081

Kindly note the recorded Dose.FC.CTG for COc1ccccc1Oc1c(NS(=O)(=O)c2ccc(C(C)(C)C)cc2)nc(-c2ncccn2)nc1OCCO [Bosentan Hydrate] , which is 0.121

Kindly note the recorded Dose.FC.CTG for Cl.Cl.Cl.O[C@@H](COc1cccc2ncccc12)CN1CCN([C@@H]2c3ccccc3[C@@H]3[C@H](c4ccccc42)C3(F)F)CC1 [Zosuquidar (LY335979) 3HCl] , which is 0.276

###

Task for the reader: assign each of the following compounds its reported Z.CTG.
test system: ENR+CD organoids; assay: Primary screen: ATP (CellTiter-Glo 3D, CTG) cell number/viability, 2.5-D 384-well ENR+CD organoids; conditions: primary screen, standard z score, dose 0.08 uM;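 note: compounds given at plating and again on day 3 over a 6-day differentiation from ENR+CV stem-cell-enriched precursors, ATP measured on day 6, plate median as control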

Kindly note the recorded Z.CTG for CNC(=O)c1cc(Oc2ccc(NC(=O)Nc3cc(C(C)(C)C)nn3-c3ccc4ncccc4c3)c(F)c2)ccn1 [DCC-2036 (Rebastinib)] , which is 0.516

Kindly note the recorded Z.CTG for c1ccc(CNc2nc(NCc3ccccc3)c3ccccc3n2)cc1 , which is 0.285

Kindly note the recorded Z.CTG for COc1cc(Nc2ncc(F)c(Nc3ccc4c(n3)N(COP(=O)(O)O)C(=O)C(C)(C)O4)n2)cc(OC)c1OC [Fostamatinib (R788)] , which is 0.554

Kindly note the recorded Z.CTG for Cc1ccc2c(=O)c3cccc(CC(=O)O)c3oc2c1C , which is −1.357

Kindly note the recorded Z.CTG for COc1cccc(C=NCCN=Cc2cccc(OC)c2[O-])c1[O-].[Cl-].[Mn+3] , which is −0.035

Kindly note the recorded Z.CTG for Cn1cc(C2=C(c3cn(C4CCN(Cc5ccccn5)CC4)c4ccccc34)C(=O)NC2=O)c2ccccc21 , which is 0.565

###

Tested on: ENR+CD organoids (ISC to Paneth cell differentiation)
Experiment: Primary screen: basal (non-stimulated) lysozyme secretion LYZ.NS, 2.5-D 384-well ENR+CD organoid differentiation
Assay type: cell-based, mouse
Conditions: primary screen, dose 0.08 uM, FC relative to plate median
Text: High-throughput screening.
Task for the reader: assign each of the following compounds its reported Dose.FC.LYZ.NS.
Answer format: numeric, log2 fold change implied, no suffix.

Kindly note the recorded Dose.FC.LYZ.NS for NC(=O)c1ccc(-c2nc(-c3ccccn3)c(-c3ccc4c(c3)OCO4)[nH]2)cc1 , which is 0.141

Kindly note the recorded Dose.FC.LYZ.NS for N#CC[C@H](C1CCCC1)n1cc(-c2ncnc3[nH]ccc23)cn1 [Ruxolitinib (INCB018424), Ruxolitinib, reference compound] , which is 0.122

Kindly note the recorded Dose.FC.LYZ.NS for N#CSc1cc(SC#N)c(N)nc1N , which is 0.100

Kindly note the recorded Dose.FC.LYZ.NS for COc1cc2c(cc1OC)CN(CCc1ccc(NC(=O)c3cc(OC)c(OC)cc3NC(=O)c3cnc4ccccc4c3)cc1)CC2 , which is 0.053

Kindly note the recorded Dose.FC.LYZ.NS for CNC(=C[N+](=O)[O-])NCCSCc1ccc(CN(C)C)o1 , which is −0.027

Kindly note the recorded Dose.FC.LYZ.NS for C#CCC(Cc1cnc2nc(N)nc(N)c2n1)c1ccc(C(=O)N[C@@H](CCC(=O)O)C(=O)O)cc1 (stereo partly drawn) [Pralatrexate] , which is −0.135

Kindly note the recorded Dose.FC.LYZ.NS for CC(C)N(CCCNC(=O)Nc1ccc(C(C)(C)C)cc1)C[C@H]1O[C@@H](n2cc(Br)c3c(N)ncnc32)[C@H](O)[C@@H]1O , which is 0.090

Kindly note the recorded Dose.FC.LYZ.NS for O=S(=O)(c1ccccc1)c1cnc2c(N3CCNCC3)cccc2c1 , which is 0.012

Kindly note the recorded Dose.FC.LYZ.NS for CO[C@H]1C[C@@H]2CC[C@@H](C)[C@@](O)(O2)C(=O)C(=O)N2CCCC[C@H]2C(=O)O[C@H]([C@H](C)C[C@@H]2CC[C@@H](OP(C)(C)=O)[C@H](OC)C2)CC(=O)[C@H](C)/C=C(\C)[C@@H](O)[C@@H](OC)C(=O)[C@H](C)C[C@H](C)/C=C/C=C/C=C/1C , which is 0.005

Kindly note the recorded Dose.FC.LYZ.NS for O=C(Nc1ccccc1Br)N[C@@H]1CCN(c2ccc(C(F)(F)F)cn2)C1 , which is 0.074

Kindly note the recorded Dose.FC.LYZ.NS for O=C(NCc1cccc(O)c1)Nc1nc(-c2ccncc2)cs1 , which is −0.006

Kindly note the recorded Dose.FC.LYZ.NS for Cc1c(C(=O)NN2CCCCC2)nn(-c2ccc(Cl)cc2Cl)c1-c1ccc(Cl)cc1 , which is 0.108

Kindly note the recorded Dose.FC.LYZ.NS for Nc1ccc(C(=O)[O-])c(O)c1.[Na+] [Sodium 4-Aminosalicylate] , which is 0.080

Kindly note the recorded Dose.FC.LYZ.NS for COc1c(C)c(C(=O)c2ccc(N)c(C(=O)[O-])c2)n2ccccc12.[Na+] [SSR128129E] , which is 0.093

Kindly note the recorded Dose.FC.LYZ.NS for Cc1cn([C@H]2C=C[C@@H](CO)O2)c(=O)[nH]c1=O , which is 0.071
